assayOverview: Pharmacokinetics in rats after oral (gavage) or parenteral administration
conditionContext: male, Wistar (Hannover), rat, whole blood, po, 55 mg/kg
measure: Cmax (ng/mL)
Give just the number in ng/mL; leave the unit off.

Challenge: Identify the reported Cmax for the following entry. CO[C@@H]1[C@@H](OC(N)=O)[C@@H](O)[C@H](Oc2ccc3c(O)c(NC(=O)c4ccc(O)c(CC=C(C)C)c4)c(=O)oc3c2C)OC1(C)C
Response given: 23300

---

assayOverview: Pharmacokinetics in rats after oral (gavage) or parenteral administration
conditionContext: male, Wistar (Hannover), rat, whole blood, po, 2 mg/kg
measure: AUC(0-t) (µM·h)
Give just the number in µM·h; leave the unit off.

Challenge: Identify the reported AUC(0-t) for the following entry. CN(Cc1cnc2nc(N)nc(N)c2n1)c1ccc(C(=O)N[C@@H](CCC(=O)O)C(=O)O)cc1 [methotrexate]
Response given: 0.759

---

assayOverview: Pharmacokinetics in rats after oral (gavage) or parenteral administration
conditionContext: male, Wistar (Hannover), rat, whole blood, po, 2 mg/kg
measure: AUC(0-inf)
Phrase the answer as number then unit, nothing more needed.

Challenge: Identify the reported AUC(0-inf) for the following entry. CN(Cc1cnc2nc(N)nc(N)c2n1)c1ccc(C(=O)N[C@@H](CCC(=O)O)C(=O)O)cc1 [methotrexate]
Response given: 0.923 µM·h

---

assayOverview: Pharmacokinetics in rats after oral (gavage) or parenteral administration
conditionContext: male, Wistar (Hannover), rat, whole blood, ip, 5.5 mg/kg
measure: Cmax (ng/mL)
Give just the number in ng/mL; leave the unit off.

Challenge: Identify the reported Cmax for the following entry. CO[C@@H]1[C@@H](OC(N)=O)[C@@H](O)[C@H](Oc2ccc3c(O)c(NC(=O)c4ccc(O)c(CC=C(C)C)c4)c(=O)oc3c2C)OC1(C)C
Response given: 9600

---

assayOverview: Pharmacokinetics in rats after oral (gavage) or parenteral administration
conditionContext: male, Wistar (Hannover), rat, whole blood, ip, 5.5 mg/kg
measure: AUC(0-inf) (ng·h/mL)
Give just the number in ng·h/mL; leave the unit off.

Challenge: Identify the reported AUC(0-inf) for the following entry. CO[C@@H]1[C@@H](OC(N)=O)[C@@H](O)[C@H](Oc2ccc3c(O)c(NC(=O)c4ccc(O)c(CC=C(C)C)c4)c(=O)oc3c2C)OC1(C)C
Response given: 25500

---

assayOverview: Pharmacokinetics in rats after oral (gavage) or parenteral administration
conditionContext: male, Wistar (Hannover), rat, whole blood, po, 2 mg/kg
measure: Cmax (nM)
Give just the number in nM; leave the unit off.

Challenge: Identify the reported Cmax for the following entry. CN(Cc1cnc2nc(N)nc(N)c2n1)c1ccc(C(=O)N[C@@H](CCC(=O)O)C(=O)O)cc1 [methotrexate]
Response given: 277

---

assayOverview: Pharmacokinetics in rats after oral (gavage) or parenteral administration
conditionContext: male, Wistar (Hannover), rat, whole blood, po, 55 mg/kg
measure: AUC(0-inf)

Challenge: Identify the reported AUC(0-inf) for the following entry. CO[C@@H]1[C@@H](OC(N)=O)[C@@H](O)[C@H](Oc2ccc3c(O)c(NC(=O)c4ccc(O)c(CC=C(C)C)c4)c(=O)oc3c2C)OC1(C)C
Response given: 110 µg·h/mL

---

assayOverview: Pharmacokinetics in rats after oral (gavage) or parenteral administration
conditionContext: male, Wistar (Hannover), rat, whole blood, po, 55 mg/kg
measure: Tmax
Phrase the answer as number then unit, nothing more needed.

Challenge: Identify the reported Tmax for the following entry. CO[C@@H]1[C@@H](OC(N)=O)[C@@H](O)[C@H](Oc2ccc3c(O)c(NC(=O)c4ccc(O)c(CC=C(C)C)c4)c(=O)oc3c2C)OC1(C)C
Response given: 1.8 h
